Assay procedure: BMS-345541 levels in mouse serum and tumor tissues after oral dose
Type: in vivo, mice
Run conditions: nude, mouse, serum; 75 mg/kg oral, 1.5 h (FIG. 1E)
Value kind: concentration at 1.5 h (µM)
Return type: number; implicit unit µM.

**Q:** # input compound: `Cc1ccc2nc(NCCN)c3ncc(C)n3c2c1.Cl` ; wanted: its concentration at 1.5 h
**A:** 6.6

---

Assay procedure: BMS-345541 levels in mouse serum and tumor tissues after oral dose
Format: in vivo, mice
Run conditions: nude, mouse, serum; 75 mg/kg oral, 8 h (FIG. 1E)
Value kind: concentration at 8 h (µM)
Return type: number; implicit unit µM.

**Q:** # input molecule: `Cc1ccc2nc(NCCN)c3ncc(C)n3c2c1.Cl` ; wanted: its concentration at 8 h
**A:** 4.1

---

Assay procedure: BMS-345541 levels in mouse serum and tumor tissues after oral dose
Format: in vivo, mice
Run conditions: nude, mouse, serum; 75 mg/kg oral, 5 h (FIG. 1E)
Value kind: concentration at 5 h (µM)
Return type: number; implicit unit µM.

**Q:** # input compound: `Cc1ccc2nc(NCCN)c3ncc(C)n3c2c1.Cl` ; wanted: its concentration at 5 h
**A:** 5.2

---

Assay procedure: BMS-345541 levels in mouse serum and tumor tissues after oral dose
Type: in vivo, mice
Run conditions: nude, mouse, serum; 8 h after oral dose of 10 mg/kg
Value kind: concentration at 8 h (nM)
Return type: number; implicit unit nM.

**Q:** # input compound: `Cc1ccc2nc(NCCN)c3ncc(C)n3c2c1.Cl` ; wanted: its concentration at 8 h
**A:** 900

---

Assay procedure: BMS-345541 levels in mouse serum and tumor tissues after oral dose
Type: in vivo, mice
Run conditions: nude, mouse, serum; 8 h after oral dose of 25 mg/kg
Value kind: concentration at 8 h

**Q:** # input molecule: `Cc1ccc2nc(NCCN)c3ncc(C)n3c2c1.Cl` ; wanted: its concentration at 8 h
**A:** 3.1 µM
